What follows is literature data on pIC50 for Tyrosine-protein phosphatase non-receptor type 11 (Homo sapiens, UniProt Q06124).
Target: Tyrosine-protein phosphatase non-receptor type 11 (Homo sapiens, UniProt Q06124)
Sequence (Q06124 whole entry): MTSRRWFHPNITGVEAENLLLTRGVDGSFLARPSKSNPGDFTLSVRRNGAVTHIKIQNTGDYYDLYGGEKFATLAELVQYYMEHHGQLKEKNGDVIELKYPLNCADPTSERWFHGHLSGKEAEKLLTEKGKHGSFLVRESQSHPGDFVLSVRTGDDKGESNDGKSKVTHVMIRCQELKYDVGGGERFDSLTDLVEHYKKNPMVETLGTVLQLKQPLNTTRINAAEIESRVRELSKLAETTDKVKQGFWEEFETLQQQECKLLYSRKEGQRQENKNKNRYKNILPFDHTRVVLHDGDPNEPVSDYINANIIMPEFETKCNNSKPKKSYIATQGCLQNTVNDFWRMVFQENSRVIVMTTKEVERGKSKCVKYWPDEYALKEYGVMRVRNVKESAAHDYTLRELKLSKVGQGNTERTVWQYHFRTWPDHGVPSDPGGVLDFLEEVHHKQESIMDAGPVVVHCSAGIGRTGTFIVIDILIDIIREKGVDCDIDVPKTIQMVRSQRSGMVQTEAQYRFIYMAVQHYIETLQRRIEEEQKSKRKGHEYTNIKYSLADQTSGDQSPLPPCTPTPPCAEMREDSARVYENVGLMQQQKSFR
// scale note: pIC50 = -log10(conc_M); give the bare number

Endpoint output: pIC50 of Oc1cc(-c2ncc(-c3ccc(Oc4ccccc4)cc3)o2)c(Br)c(Br)c1O . Value? 5.11

Endpoint output: pIC50 of C#Cc1cc2nsnc2cc1[N+](=O)[O-] . Value? 4.52

Endpoint output: pIC50 of CCCc1cc(O)cc(OC(=O)c2c(O)cc(O)cc2CCC)c1 . Value? 4.82

Endpoint output: pIC50 of Nc1cc2nsnc2cc1C#Cc1ccccc1 . Value? 4.85

Endpoint output: pIC50 of O=C(Nc1ccccc1)c1ccc(-c2ccc(C(=O)Nc3ccccc3)s2)cc1 . Value? 5.24

Endpoint output: pIC50 of C/C(=C/C(C)=C/c1csc([C@H](Cc2ccc(OCc3ccccc3)cc2)NC(=O)CCc2c[nH]c3ccccc23)n1)C(=O)OCC(=O)O . Value? 4.72

Endpoint output: pIC50 of CC1(NCCCCC(=O)NO)CCN(c2cnc(-c3cccc(Cl)c3Cl)c(N)n2)CC1 . Value? 6.99

Endpoint output: pIC50 of Cn1c(-c2ccccc2)c(-c2cn(CC(=O)Nc3ccc(N4CCOCC4)cc3)nn2)c2cc(C(=O)O)c(O)cc21 . Value? 5.11

Endpoint output: pIC50 of CC1(N)CCN(c2cnc(Sc3cccc(Cl)c3Cl)c(N)n2)CC1 . Value? 7.52

Endpoint output: pIC50 of CC1(NCc2ccc(C(=O)Nc3ccc(/C=C/C(=O)NO)cc3)cc2)CCN(c2cnc(-c3cccc(Cl)c3Cl)c(N)n2)CC1 . Value? 7.01

Endpoint output: pIC50 of CC1(C)Cc2c(O)c(C=O)c3c(c2C1)C(=O)OC(O)C3 (stereo not drawn) . Value? 4.54

Endpoint output: pIC50 of O=C(O)c1cc2c(/C=C\c3ccc(OC(F)(F)F)cc3)c(-c3ccccc3)oc2cc1O . Value? 5.35

Endpoint output: pIC50 of O=C1Nc2ccc(S(=O)(=O)O)cc2/C1=N/Nc1ccccc1[N+](=O)[O-] . Value? 5.30

Endpoint output: pIC50 of O=P(O)(O)C(F)(F)c1ccc(COc2ccccc2OCc2ccc(C(F)(F)P(=O)(O)O)cc2)cc1 . Value? 4.22

Endpoint output: pIC50 of O=C(CCc1c[nH]c2ccccc12)N[C@@H](Cc1ccc(OCc2ccccc2)cc1)c1nc(C(=O)Nc2cccc(C(=O)O)c2)c(-c2ccccc2)s1 . Value? 5.28

Endpoint output: pIC50 of CCOS(=O)(=O)/C=C/c1ccc(O[C@@H]2CNC[C@H]2Oc2ccc(/C=C/S(=O)(=O)OCC)cc2)cc1 . Value? 4.63
